Tested on: human ether-à-go-go-related gene (hERG) potassium channel (human, UniProt Q12809)
Sequence (Q12809 whole entry, looked up): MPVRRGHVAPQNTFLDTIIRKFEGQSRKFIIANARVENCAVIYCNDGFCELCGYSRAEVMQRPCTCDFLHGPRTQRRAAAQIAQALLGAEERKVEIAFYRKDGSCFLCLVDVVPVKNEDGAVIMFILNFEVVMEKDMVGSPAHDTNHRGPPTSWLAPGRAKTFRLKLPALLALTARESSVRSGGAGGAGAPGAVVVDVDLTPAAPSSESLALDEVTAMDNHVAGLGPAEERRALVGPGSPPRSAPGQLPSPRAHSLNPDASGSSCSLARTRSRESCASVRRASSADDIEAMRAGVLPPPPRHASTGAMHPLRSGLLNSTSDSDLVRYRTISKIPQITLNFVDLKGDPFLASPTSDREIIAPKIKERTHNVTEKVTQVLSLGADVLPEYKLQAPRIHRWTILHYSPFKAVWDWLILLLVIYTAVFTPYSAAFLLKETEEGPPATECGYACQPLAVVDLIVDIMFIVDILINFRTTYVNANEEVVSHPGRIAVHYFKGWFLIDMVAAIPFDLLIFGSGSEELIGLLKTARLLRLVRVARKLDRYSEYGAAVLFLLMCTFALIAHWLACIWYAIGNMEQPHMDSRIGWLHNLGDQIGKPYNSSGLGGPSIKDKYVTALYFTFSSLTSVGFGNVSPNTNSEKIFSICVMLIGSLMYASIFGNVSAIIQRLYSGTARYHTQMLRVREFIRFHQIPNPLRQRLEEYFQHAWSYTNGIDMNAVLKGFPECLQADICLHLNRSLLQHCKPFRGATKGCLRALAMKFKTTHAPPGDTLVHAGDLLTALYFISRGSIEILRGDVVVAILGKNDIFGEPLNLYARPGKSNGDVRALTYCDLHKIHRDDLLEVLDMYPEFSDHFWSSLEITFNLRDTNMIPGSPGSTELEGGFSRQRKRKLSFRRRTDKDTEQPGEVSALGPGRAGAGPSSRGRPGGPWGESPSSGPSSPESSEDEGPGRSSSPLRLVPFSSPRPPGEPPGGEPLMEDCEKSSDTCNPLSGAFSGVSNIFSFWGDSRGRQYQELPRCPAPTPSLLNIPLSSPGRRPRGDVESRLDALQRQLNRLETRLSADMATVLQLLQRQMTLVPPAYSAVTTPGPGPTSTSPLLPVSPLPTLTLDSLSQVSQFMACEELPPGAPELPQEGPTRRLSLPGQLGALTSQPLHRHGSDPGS
Experiment notes: primary screen, population patch clamp on CHO cells stably expressing hERG; higher = less effect of the substance
From the text: Briefly, Chinese hamster ovary (CHO) cells stably expressing the hERG channel were dislodged from tissue culture flasks and dispensed into PPC plates. […] Small molecule effects on hERG current density were quantified by […].
Hit rate of the full screen: of about 310,000 compounds, about 2,200 (0.71%) showed an effect of 50% or more. The effect is printed as a negative number. What follows is part of a selection rich in strong results, with near analogues and random picks from the rest.
Think of -20% as a floor: if hERG current change (%, negative = inhibition) at 1uM stands on it or above, it is MET; beneath it, NOT MET.

[
  {
    "Compound": "O=C(CN1CCC(n2cnc3cc(F)ccc32)CC1)Nc1ccccc1Br",
    "Classification": "NOT MET"
  },
  {
    "Compound": "Cc1ccc(N/C(N)=N/c2nc(C)cc(N3CCCCC3)n2)c(C)c1",
    "Classification": "NOT MET"
  },
  {
    "Compound": "O=C(NCc1ccccc1)/C(=C/c1ccc([N+](=O)[O-])cc1)NC(=O)c1ccco1",
    "Classification": "NOT MET"
  },
  {
    "Compound": "COc1ccc(OC)c(N/C(N)=N/c2nc(C)cc(C)n2)c1",
    "Classification": "NOT MET"
  },
  {
    "Compound": "COc1ccccc1CNC(=O)CN1CCC(NC(=O)c2ccccc2F)CC1.Cl",
    "Classification": "MET"
  },
  {
    "Compound": "COc1cccc(OC)c1CN1CCCC(C(=O)c2ccccc2SC)C1 (stereo not drawn)",
    "Classification": "NOT MET"
  },
  {
    "Compound": "CCOC(=O)N1CCN(CC(=O)Nc2ccc(F)cc2)CC1",
    "Classification": "NOT MET"
  },
  {
    "Compound": "COc1ccc(C(=O)C2CCCN(Cc3cnc(C)s3)C2)cc1OC (stereo not drawn)",
    "Classification": "MET"
  },
  {
    "Compound": "COc1ccc(C(=O)C2CCCN(Cc3cccc4c3OCO4)C2)cc1OC (stereo not drawn)",
    "Classification": "NOT MET"
  },
  {
    "Compound": "COc1ccc(CNC(=O)c2ccccc2C(=O)O)cc1",
    "Classification": "MET"
  },
  {
    "Compound": "COc1ccc(C)cc1N/C(N)=N/c1nc(C)cc(C)n1",
    "Classification": "NOT MET"
  },
  {
    "Compound": "CCCOc1ccccc1N/C(N)=N/c1nc(C)cc(C)n1",
    "Classification": "NOT MET"
  },
  {
    "Compound": "COc1ccc(N/C(N)=N/c2nc(C)cc(C)n2)c(OC)c1",
    "Classification": "MET"
  },
  {
    "Compound": "COc1cc(N/C(N)=N/c2nc(C)cc(C)n2)c(OC)cc1Cl",
    "Classification": "MET"
  },
  {
    "Compound": "O=C(NCCc1ccccc1)/C(=C\\c1ccccc1)NC(=O)c1ccco1",
    "Classification": "MET"
  },
  {
    "Compound": "COc1cc(C(=O)N2CCC(n3cnc4cc(F)ccc43)CC2)cc(OC)c1OC",
    "Classification": "MET"
  },
  {
    "Compound": "CCOC(=O)c1ccc(NC(=O)[C@@H](NC(N)=O)C(C)C)cc1",
    "Classification": "MET"
  },
  {
    "Compound": "CC(=O)Oc1ccc(/C=C(\\NC(=O)c2ccco2)C(=O)NCc2ccccc2)cc1",
    "Classification": "NOT MET"
  },
  {
    "Compound": "COc1ccccc1N/C(N)=N/c1nc(C)cc(C)n1",
    "Classification": "MET"
  },
  {
    "Compound": "CCOc1ccc(NS(=O)(=O)c2ccc(C(=O)NCC3(N(C)C)CCCCC3)cc2)cc1",
    "Classification": "MET"
  },
  {
    "Compound": "O=C(NCCO)/C(=C\\c1cccc([N+](=O)[O-])c1)NC(=O)c1ccco1",
    "Classification": "MET"
  },
  {
    "Compound": "CCOC(=O)N1CCN(CC(=O)Nc2ccc(C)cc2)CC1",
    "Classification": "MET"
  },
  {
    "Compound": "COc1ccc(C(=O)C2CCCN(Cc3nc4ccccc4nc3C)C2)cc1OC (stereo not drawn)",
    "Classification": "NOT MET"
  },
  {
    "Compound": "CCOC(=O)N1CCN(CC(=O)Nc2ccc(OC)cc2)CC1",
    "Classification": "MET"
  },
  {
    "Compound": "O=C(NCc1ccco1)/C(=C/c1ccc([N+](=O)[O-])cc1)NC(=O)c1ccco1",
    "Classification": "NOT MET"
  },
  {
    "Compound": "CN(C)C1(CNC(=O)c2ccc(NS(=O)(=O)c3ccc(Cl)c(Cl)c3)cc2)CCCCC1",
    "Classification": "NOT MET"
  }
]

---

Tested on: human ether-à-go-go-related gene (hERG) potassium channel (human, UniProt Q12809)
Experiment notes: primary screen, population patch clamp on CHO cells stably expressing hERG; higher = less effect of the substance
The campaign covered roughly 310,000 compounds. About 2,200 (0.71%) showed an effect of 50% or more. Effects have a minus sign here. The sample as a whole holds a higher share of strong results than the screen did.
Catalogue of molecules with associated hERG current change (%, negative = inhibition) at 1uM
Metric name: hERG current change (%, negative = inhibition) at 1uM (%)

[
  {
    "Molecule": "COc1cccc(N2CCN(Cc3nc(N)nc(Nc4ccccc4OC)n3)CC2)c1",
    "Meas value": 10.2
  },
  {
    "Molecule": "Cc1nnc(SCC(=O)Nc2sc3c(c2C(N)=O)CCC(C)C3)[nH]c1=O (centres unmarked)",
    "Meas value": 10.6
  },
  {
    "Molecule": "O=c1cc(-c2ccccc2)oc2ccc(O)cc12",
    "Meas value": 4.17
  },
  {
    "Molecule": "Cc1ccc(S(=O)(=O)N2CCCCC2)cc1C(=O)N(CCc1ccccc1)Cc1ccccc1",
    "Meas value": 12.2
  },
  {
    "Molecule": "Cc1cc(C)cc(NC(=O)c2ccccc2NC(=O)CCC(=O)O)c1",
    "Meas value": 7.41
  },
  {
    "Molecule": "Cc1ccc(-c2cc(C(=O)N3CCCc4ccccc43)no2)cc1",
    "Meas value": -75.5
  },
  {
    "Molecule": "COc1ccccc1CCC(=O)Nc1nc2ccccc2[nH]1",
    "Meas value": 18.7
  },
  {
    "Molecule": "Clc1ccc(Oc2ncnc3oc(-c4ccccc4)cc23)cc1",
    "Meas value": 6.4
  },
  {
    "Molecule": "COc1ccccc1Nc1nc(N)nc(CN2CCN(c3ccccc3F)CC2)n1",
    "Meas value": -9.68
  },
  {
    "Molecule": "OCCCNc1nc(-c2ccccc2)c2cc(Cl)ccc2n1",
    "Meas value": 5.65
  },
  {
    "Molecule": "O=c1oc(-c2ccco2)nc2sc3c(c12)CCCC3",
    "Meas value": 11.5
  }
]

---

Tested on: human ether-à-go-go-related gene (hERG) potassium channel (human, UniProt Q12809)
Experiment notes: primary screen, population patch clamp on CHO cells stably expressing hERG; higher = less effect of the substance
The whole screen tested about 310,000 compounds, of which about 2,200 (0.71%) showed an effect of 50% or more. The effect is printed as a negative number. The entries come from a sample that favours strong results as a whole.
Metric name: hERG current change (%, negative = inhibition) at 1uM (%)

[
  {
    "Compound": "Cc1cccc(NC(=O)Nc2c(C)n(C)n(-c3ccccc3)c2=O)c1",
    "Result units": "%",
    "Meas value": 9.37
  },
  {
    "Compound": "CN(C)CCCn1cnc2c(c1=N)C(c1ccccc1)c1ccc3ccccc3c1O2 (stereo not drawn)",
    "Result units": "%",
    "Meas value": -61.9
  },
  {
    "Compound": "CCCCCn1c(NC(=O)c2ccco2)c(C(=O)OCC)c2nc3ccccc3nc21",
    "Result units": "%",
    "Meas value": -73.9
  },
  {
    "Compound": "COc1ccc(C2c3ccc4ccccc4c3Oc3ncn(CCCO)c(=N)c32)cc1 (stereo not drawn)",
    "Result units": "%",
    "Meas value": -40.6
  },
  {
    "Compound": "O=C(CCN1C(=O)/C(=C/c2ccc(F)cc2)SC1=S)NNC(=O)c1cccnc1",
    "Result units": "%",
    "Meas value": 1.06
  },
  {
    "Compound": "COc1ccccc1C(=O)Nc1ccnn1C1CCN(C2CCSCC2)CC1",
    "Result units": "%",
    "Meas value": -44.5
  },
  {
    "Compound": "Cc1cccc(CN2CCC(C(=O)Nc3cccc(-c4cscn4)c3)CC2)n1",
    "Result units": "%",
    "Meas value": -4.56
  },
  {
    "Compound": "CCCOC(=O)c1ccc(NS(=O)(=O)c2cccs2)cc1",
    "Result units": "%",
    "Meas value": 8.05
  },
  {
    "Compound": "O=C(Nc1ccnn1C1CCN(CCCC2CCCC2)CC1)c1ccccc1",
    "Result units": "%",
    "Meas value": -60.9
  },
  {
    "Compound": "COc1ccc(C(=O)N2CCC(C(=O)Nc3ccc4c(c3)OCO4)CC2)cc1",
    "Result units": "%",
    "Meas value": -59
  },
  {
    "Compound": "O=C(Nc1ccnn1C1CCN(C2CCCC2)CC1)c1ccccc1Cl",
    "Result units": "%",
    "Meas value": 6.27
  },
  {
    "Compound": "O=C(O)C(Cc1c[nH]c2ccccc12)NS(=O)(=O)c1ccc(Cl)c(C(F)(F)F)c1 (stereo not drawn)",
    "Result units": "%",
    "Meas value": 7.86
  },
  {
    "Compound": "O=C(Nc1ccc2c(c1)OCO2)C1CCN(C(=O)c2ccc([N+](=O)[O-])cc2)CC1",
    "Result units": "%",
    "Meas value": -74.6
  },
  {
    "Compound": "COc1cccc(C(=O)NC2CCCN(C3Cc4ccccc4C3)C2)c1OC (stereo not drawn)",
    "Result units": "%",
    "Meas value": 0.941
  },
  {
    "Compound": "COc1ccc(C(=O)N2CCC(C(=O)Nc3ccc(OC)c(OC)c3)CC2)cc1",
    "Result units": "%",
    "Meas value": 10.7
  },
  {
    "Compound": "Nc1nc(Cn2nnc(-c3ccccc3F)n2)nc(N2CCOCC2)n1",
    "Result units": "%",
    "Meas value": -53.8
  },
  {
    "Compound": "Cc1ccccc1C(=O)Nc1ccnn1C1CCN(CC2CC=CCC2)CC1 (stereo not drawn)",
    "Result units": "%",
    "Meas value": -33.5
  },
  {
    "Compound": "C/C(=N\\N1C(=O)CSC1=S)c1ccc(Br)cc1",
    "Result units": "%",
    "Meas value": 1.48
  },
  {
    "Compound": "COc1cc(S(=O)(=O)NCC2OCCc3ccccc32)ccc1-n1cnnn1 (stereo not drawn)",
    "Result units": "%",
    "Meas value": -7.28
  },
  {
    "Compound": "Nc1nc(Cn2nnc(-c3ccccc3Cl)n2)nc(N2CCOCC2)n1",
    "Result units": "%",
    "Meas value": -25.9
  },
  {
    "Compound": "Cn1cc(CN2CCC(C(=O)Nc3cccc(-c4cccc(F)c4)c3)CC2)cn1",
    "Result units": "%",
    "Meas value": -37.9
  },
  {
    "Compound": "N=c1c2c(ncn1CCCO)Oc1c(ccc3ccccc13)C2c1ccccc1 (stereo not drawn)",
    "Result units": "%",
    "Meas value": -20.5
  },
  {
    "Compound": "COc1ccc(C(=O)N2CCC(C(=O)Nc3ccc4c(c3)OCCO4)CC2)cc1",
    "Result units": "%",
    "Meas value": -13.1
  },
  {
    "Compound": "COc1ccc(N(C(=O)c2ccccc2OC)C2C=CS(=O)(=O)C2)c(OC)c1 (stereo not drawn)",
    "Result units": "%",
    "Meas value": 14.4
  },
  {
    "Compound": "COc1ccc(C2c3ccc4ccccc4c3Oc3ncn(CCN(C)C)c(=N)c32)cc1 (stereo not drawn)",
    "Result units": "%",
    "Meas value": -40.1
  },
  {
    "Compound": "O=C(OCCN(CCOC(=O)c1ccncc1)S(=O)(=O)c1cccs1)c1ccncc1",
    "Result units": "%",
    "Meas value": -51.5
  },
  {
    "Compound": "CCCn1ncc(CN2CCC(C(=O)Nc3cccc(-c4cccc(F)c4)c3)CC2)c1C",
    "Result units": "%",
    "Meas value": -60.6
  },
  {
    "Compound": "O=C(Nc1ccc2c(c1)OCCO2)C1CCN(C(=O)c2ccc(F)cc2)CC1",
    "Result units": "%",
    "Meas value": 5.7
  },
  {
    "Compound": "COc1ccc(C2CC(C(F)(F)F)n3nc(C(=O)N(C)Cc4cn(C)nc4C)c(Cl)c3N2)cc1 (stereo not drawn)",
    "Result units": "%",
    "Meas value": -3.33
  },
  {
    "Compound": "COc1cccc(-c2cccc(NC(=O)C3CCN(Cc4cccc(C)n4)CC3)c2)c1",
    "Result units": "%",
    "Meas value": -46.7
  }
]
